test system: MDA-MB-231; test: Antiproliferative activity against human MDA-MB-231 cells after 48 hrs by MTT assay; format: functional, cell-based; details: MDA-MB-231, 48 h
measureName: IC50 (µM)

Below, 3 compounds whose answers are already recorded.
CC(C)(C)OC(=O)N[C@@H](Cc1ccc(O)cc1)C(=O)N1CC2(C[C@H]1C(=O)NCCCCCC(=O)NO)SCCS2
30.5
CC(C)C[C@H](NC(=O)OC(C)(C)C)C(=O)N1CC2(C[C@H]1C(=O)NCCCCCC(=O)NO)SCCS2
3.5
CC(C)(C)OC(=O)N[C@@H](Cc1c[nH]c2ccccc12)C(=O)N1CC2(C[C@H]1C(=O)NCCCCCC(=O)NO)SCCS2
5.83

a = CC(C)(C)OC(=O)N[C@@H](Cc1ccccc1)C(=O)N1CC2(C[C@H]1C(=O)NCCCCCC(=O)NO)SCCS2
b = CC(C)(C)OC(=O)NCCCC[C@H](NC(=O)OC(C)(C)C)C(=O)N1CC2(C[C@H]1C(=O)NCCCCCC(=O)NO)SCCS2
Q: Hey, between a and b which has a smaller measured IC50? Answer by quoting the chosen item's label.
Result: a
